IC50 values recorded for IL-13 (Homo sapiens)

Record excerpt, results attached:
CN(CCCCN(Cc1cccnc1F)Cc1cn(S(=O)(=O)c2ccccc2)c2ccccc12)C1CCCC1 [Compound 72]
> 50 µM
CN(CCCCN(Cc1cccnc1F)Cc1cn(S(=O)(=O)c2ccccc2)c2ccccc12)C1CCCCCC1 [Compound 74]
> 50 µM

Turning to the following compound.
Form: Entry = CN(CCCCCN(Cc1ccncc1)Cc1cn(-c2cccc(C(F)(F)F)c2)c2ccccc12)C1CCCCC1 [Compound 39] | System = IL-13 (Homo sapiens) | IC50 = ____
> 50 µM

---

Target: IL-4 (Homo sapiens, UniProt P05112)
Sequence (P05112 25-153, species assumed): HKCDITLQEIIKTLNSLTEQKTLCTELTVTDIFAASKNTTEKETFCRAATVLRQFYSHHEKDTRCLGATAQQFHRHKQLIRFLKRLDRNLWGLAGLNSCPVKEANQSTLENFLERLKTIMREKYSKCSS
readout: IC50 (µM)

CN(CCN(Cc1ccncc1)Cc1cn(-c2cccc(C(F)(F)F)c2)c2ccccc12)C1CCCCC1
5.7
CCCN(CCOCCN(Cc1cccnc1F)Cc1cn(S(=O)(=O)c2ccccc2)c2ccccc12)C1CCCCC1 [Compound 101]
7.9
CN(CCCN(Cc1ccncc1)Cc1cn(-c2cccc(C(F)(F)F)c2)c2ccccc12)C1CCCCC1
5.3

[I] O=S(=O)(c1ccccc1)n1cc(CN(CCCCNC2CCC2)Cc2cccnc2F)c2ccccc21
[II] FC(F)(F)c1cccc(-n2cc(CN(Cc3ccccn3)CC3CCCN(C4CCCCC4)C3)c3ccccc32)c1 (centres unmarked)
Input pair: I , II . Output: entry with lower IC50. // return label of chosen record
II

[a] CN(CCCCN(Cc1cccnc1F)Cc1cn(S(=O)(=O)c2ccccc2)c2ccccc12)C1CCC1
[b] O=S(=O)(c1ccccc1)n1cc(CN(Cc2ccccn2)CC2CCCN(C3CCCCC3)C2)c2ccccc21 (centres unmarked)
Between the two listed entries a and b , which has its IC50 at the higher number? // return label of chosen record
a
(a: 13.5 µM, b: 4.1 µM)
